system.under.test: D(4) dopamine receptor (Homo sapiens, UniProt P21917)
Sequence (P21917 whole entry): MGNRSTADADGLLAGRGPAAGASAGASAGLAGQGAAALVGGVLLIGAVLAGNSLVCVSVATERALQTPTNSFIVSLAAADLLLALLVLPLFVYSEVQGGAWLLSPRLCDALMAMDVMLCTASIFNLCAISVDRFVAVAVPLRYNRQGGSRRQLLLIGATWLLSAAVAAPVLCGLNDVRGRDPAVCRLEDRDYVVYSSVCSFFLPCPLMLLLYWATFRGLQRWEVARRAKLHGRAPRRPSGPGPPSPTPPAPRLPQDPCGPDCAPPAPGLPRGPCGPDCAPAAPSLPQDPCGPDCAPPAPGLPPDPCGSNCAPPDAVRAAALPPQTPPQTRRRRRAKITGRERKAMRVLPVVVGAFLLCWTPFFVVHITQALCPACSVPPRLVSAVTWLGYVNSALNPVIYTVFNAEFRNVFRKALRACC
method.description: Antagonist activity at human D4 receptor expressed in HEK293 cells co-expressing Gqo5 G-protein by FLIPR assay
parameter.measured: Ki (nM)

Cn1c(CN2CCC(c3cccc(C(F)(F)F)c3)CC2)nc2ccccc21
251
Cn1c(CN2CCN(c3ncc(C(F)(F)F)cc3Cl)CC2)nc2ccccc21
631

[a] Cn1c(CN2CCC(c3cccc(Cl)c3)CC2)nc2ccccc21
[b] Cn1c(CN2CCN(c3ccccc3C(F)(F)F)CC2)nc2ccccc21
Query :: I need your help: which of the pair a , b has higher Ki? Please reply using the label of the selected record.
Result :: b

---

system.under.test: Metabotropic glutamate receptor 2 (Homo sapiens)
Sequence (Q14416 whole entry): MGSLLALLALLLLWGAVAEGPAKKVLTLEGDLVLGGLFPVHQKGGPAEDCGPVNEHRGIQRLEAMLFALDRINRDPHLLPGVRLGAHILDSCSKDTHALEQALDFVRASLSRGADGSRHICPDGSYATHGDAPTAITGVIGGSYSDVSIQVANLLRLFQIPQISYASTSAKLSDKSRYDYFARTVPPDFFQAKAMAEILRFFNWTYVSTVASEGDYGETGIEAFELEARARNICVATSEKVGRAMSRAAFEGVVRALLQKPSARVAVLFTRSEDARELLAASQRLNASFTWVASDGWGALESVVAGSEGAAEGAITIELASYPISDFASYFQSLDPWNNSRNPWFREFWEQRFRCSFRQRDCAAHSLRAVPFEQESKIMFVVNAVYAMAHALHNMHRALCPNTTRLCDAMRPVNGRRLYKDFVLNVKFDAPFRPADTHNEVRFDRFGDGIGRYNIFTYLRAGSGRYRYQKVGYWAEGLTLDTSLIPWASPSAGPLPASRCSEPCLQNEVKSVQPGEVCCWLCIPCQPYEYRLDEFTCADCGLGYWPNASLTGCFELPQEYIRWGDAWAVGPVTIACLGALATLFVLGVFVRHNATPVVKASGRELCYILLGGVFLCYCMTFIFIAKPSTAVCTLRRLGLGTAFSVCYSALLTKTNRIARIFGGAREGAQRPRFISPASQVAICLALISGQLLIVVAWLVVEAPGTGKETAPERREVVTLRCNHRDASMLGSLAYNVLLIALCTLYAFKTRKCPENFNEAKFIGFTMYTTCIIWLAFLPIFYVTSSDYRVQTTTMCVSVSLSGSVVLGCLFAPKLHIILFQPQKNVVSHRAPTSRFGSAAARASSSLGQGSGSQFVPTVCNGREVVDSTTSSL
method.description: Agonist activity at human mGluR2 expressed in CHO cells co-expressing Ga16 G-protein assessed as glutamate-induced response by FLIPR assay
Type: functional, cell-based
pEC50: −log10 of the molar value.
parameter.measured: pEC50

Cn1c(CN2CCC(c3ccccc3)CC2)nc2ccccc21
5.20

[1] Cn1c(CN2CCN(c3ccc(C(F)(F)F)cc3)CC2)nc2ccccc21
[2] Cn1c(CN2CCC(c3nsc4ccccc34)CC2)nc2ccccc21
Query :: I need your help: which of the pair 1 , 2 has higher pEC50? Please reply using the label of the selected record.
Result :: 2
(2: 5.60, 1: 5.20)

---

system.under.test: UniProt:Q14416
method.description: Positive modulation of human mGluR2 expressed in CHO cells co-expressing Ga16 G-protein assessed as glutamate-induced response by FLIPR assay
Assay type: cell-based
pEC50: −log10 of the molar value.
parameter.measured: pEC50

Cn1c(CN2CCC(c3ccccc3C(F)(F)F)CC2)nc2ccccc21
6.50
Clc1cnc(N2CCN(Cc3nc4ccccc4n3Cc3ccccc3)CC2)nc1
6.90
Cn1c(CN2CCN(c3ccc(Cl)cc3F)CC2)nc2ccccc21
6.90

[a] Cn1c(CN2CCC(c3ccccc3)CC2)nc2ccccc21
[b] Cn1c(CN2CCN(c3ncc(C(F)(F)F)cc3Cl)CC2)nc2cc(C#N)ccc21
[c] Cn1c(CN2CCC(c3cccc(C(F)(F)F)c3)CC2)nc2ccccc21
[d] Cn1c(CN2CCN(c3ccccc3F)CC2)nc2ccccc21
Query :: Parameters: sort_field (pEC50), sort_dir (desc). Write out the labels following the order that was asked for.
Result :: b, c, a, d

---

system.under.test: D(2) dopamine receptor (Homo sapiens, UniProt P14416)
Sequence (P14416 whole entry): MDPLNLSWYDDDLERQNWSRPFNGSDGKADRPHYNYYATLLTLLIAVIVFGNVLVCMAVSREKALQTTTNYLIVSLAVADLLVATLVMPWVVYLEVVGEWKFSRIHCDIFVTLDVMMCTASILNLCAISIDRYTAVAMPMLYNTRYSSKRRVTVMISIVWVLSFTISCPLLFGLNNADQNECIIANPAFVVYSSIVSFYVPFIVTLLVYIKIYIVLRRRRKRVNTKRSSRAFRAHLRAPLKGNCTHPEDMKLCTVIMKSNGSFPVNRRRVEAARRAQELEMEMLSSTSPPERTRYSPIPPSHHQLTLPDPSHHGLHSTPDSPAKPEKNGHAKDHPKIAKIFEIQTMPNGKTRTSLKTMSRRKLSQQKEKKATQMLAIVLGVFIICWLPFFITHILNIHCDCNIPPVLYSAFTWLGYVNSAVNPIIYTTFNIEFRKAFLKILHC
method.description: Antagonist activity at human D2 receptor expressed in CHO cells co-expressing G0 by [35S]GTPgammaS binding assay
pKi: −log10 of the molar value.
parameter.measured: pKi

Cn1c(CN2CCC(c3ccccc3C(F)(F)F)CC2)nc2ccccc21
< 5.50
Cn1c(CN2CCC(c3nsc4ccccc34)CC2)nc2ccccc21
7.10
Cn1c(CN2CCN(c3ncc(Cl)cn3)CC2)nc2ccccc21
< 5.00

Query :: Write down measured pKi (D(2) dopamine receptor (Homo sapiens, UniProt P14416)) for this compound. `Cn1c(CN2CCN(c3ccc(C(F)(F)F)cc3)CC2)nc2ccccc21`
Result :: < 5.00
